This collection of values is drawn from PubChem BioAssay (NCI).

Test system: PC-3 prostate
run.description: NCI tumour cell line growth inhibition, 48 h

molecule: S=C(Nc1ccc2cn[nH]c2c1)Nc1ccc2cn[nH]c2c1
TGI: > 100 µM
--
molecule: CN1CCN(CCCOc2cccc3nc(Nc4ccc(Cl)c(C(F)(F)F)c4)ccc23)CC1
TGI: 3.03 µM
--
molecule: O=c1[nH]cnc2c1nnn2CCCCCCCCCCCCn1nnc2c(=O)[nH]cnc21
TGI: > 100 µM
--
molecule: Fc1cccc(F)c1C1SCc2nc3ccc(Cl)cc3n21 (stereo not given)
TGI: > 100 µM
--
molecule: O=C(CC(Cl)=C(Cl)Cl)c1cccc(Cl)c1Cl
TGI: > 100 µM
--
molecule: Clc1ccc(OCc2nn3c(CCc4nnc5sc(COc6ccc(Cl)cc6)nn45)nnc3s2)cc1
TGI: 53.1 µM
--
molecule: N#CC1c2ccccc2C=CN1C(=O)N(c1ccccc1)c1ccccc1 (stereo not given)
TGI: 25.3 µM
--
molecule: Cn1c(-c2c(N)n(CCCN3CCOCC3)c3nc(C#N)c(C#N)nc23)nc2ccccc21
TGI: > 100 µM
--
molecule: Nc1ncnc2c1ncn2C1OC(CO)C(O)C1N (stereo not given)
TGI: > 100 µM
--
molecule: COc1ccc(/C=N/n2cnc3[nH]c(C)c(Cc4ccccc4)c3c2=N)cc1
TGI: > 100 µM
--
molecule: CC(C)(C)N(Cc1ccc2c(c1)OCO2)C(=O)/C=C\Sc1ccccc1
TGI: > 100 µM
--
molecule: Cn1c(N/N=C/c2ccccc2)nc(-c2ccc([N+](=O)[O-])cc2)c(C#N)c1=O
TGI: > 100 µM
--
molecule: O=C(CN1C(=O)S/C(=C\C(Cl)=C\c2ccccc2)C1=O)NC1C=CS(=O)(=O)C1 (stereo not given)
TGI: 7.33 µM
--
molecule: O=C(Nc1ccccc1)c1cc(S(=O)(=O)N2CCNNC2=O)c(S)cc1Cl
TGI: > 100 µM
--
molecule: CC1=C(C(=O)Nc2ccc(Cl)c(C(=O)OC(C)C)c2)SCCO1
TGI: > 100 µM

====

Tested on: NCI-H460 lung
run.description: NCI tumour cell line growth inhibition, 48 h
// reported TGI per item

compound: N#CC1c2ccccc2C=CN1C(=O)N(c1ccccc1)c1ccccc1 (configuration not stated)
TGI: 34.2 µM
//
compound: C#CCOc1ccc2ncnc(Nc3ccc(NC(=O)C=C)cc3)c2c1
TGI: > 100 µM
//
compound: C[Si](C)(c1ccccc1)[C@H]1CCCC=C1CCNC1c2ccccc2CCc2ccccc21
TGI: > 100 µM
//
compound: CCOC(=O)COc1ccc2c(C)cc(=O)oc2c1
TGI: > 100 µM
//
compound: Cn1nc(-c2ccccc2)c2c(/C=C/c3ccccc3)onc2c1=O
TGI: > 100 µM
//
compound: CC(=O)C1=C(O)C2C3c4c[nH]c5cccc(c45)CC3C(C)(C)N2C1=O (configuration not stated)
TGI: 31.8 µM
//
compound: CCc1nc(N)nc(N)c1-c1ccc(N2CCNCC2)cc1
TGI: > 100 µM
//
compound: CCC(=O)c1c(C(F)(F)F)n([O-])c2cc(F)c(F)cc2[n+]1=O
TGI: 4.89 µM
//
compound: COc1ccc(N=N/C(C(=O)C(F)(F)F)=C(\O)c2ccc(Cl)cc2)cc1
TGI: 27.7 µM
//
compound: NNC(=O)c1cc(=O)[nH][nH]1
TGI: > 100 µM
//
compound: CCN1CCN(C(=O)[C@]23CCC(C)(C)C[C@@H]2C2=CC[C@@H]4[C@@]5(C)C/C(=C/c6ccncc6)C(=O)C(C)(C)[C@@H]5CC[C@@]4(C)[C@]2(C)CC3)CC1
TGI: 2.7 µM
//
compound: COC(OC)[C@@H]1OC[C@@H](O)[C@@H]1n1cnc2c(N)ncnc21
TGI: > 100 µM
//
compound: C[Si](C)(C)C1=C([Si](C)(C)C)C(Cl)(Cl)C1=O
TGI: 32.2 µM
//
compound: CCN(CC)c1ccc2cc(C(=O)Nc3ccccn3)c(=N)oc2c1
TGI: > 100 µM
//
compound: Cc1cc(=O)[nH]c(NN2C(Cl)C(=O)C2c2cccc(Cl)c2)n1 (configuration not stated)
TGI: 43.2 µM
//
compound: CCn1c(SCC(=O)NNC(=S)NC)nc2ccccc2c1=O
TGI: 45.7 µM
//
compound: CCCC(CCN)(CCN)[N+](=O)[O-]
TGI: > 100 µM
//
compound: COc1ccc(C(OCC2OC(n3ccc(NC(=O)c4ccccc4)nc3=O)CC2OP2(=S)SCCS2)(c2ccccc2)c2ccc(OC)cc2)cc1 (configuration not stated)
TGI: > 100 µM
//
compound: COc1cccc(-c2cc(=O)c3ccccc3[nH]2)c1
TGI: > 100 µM
//
compound: CC1(C)C(=O)C(C)(C)C1=S
TGI: > 100 µM
//
compound: CCOc1ccc(NC(=O)CC2C(=O)Nc3ccccc3S2(=O)=O)cc1 (configuration not stated)
TGI: > 100 µM
//
compound: CNc1ncc(-c2nnnn2-c2ccccc2)c(CN(C)C)n1
TGI: > 100 µM
